Origin of measurements: patent US20190002452A1

# tested-target: human farnesol receptor protein hFXR (Homo sapiens, UniProt Q96RI1)
# Construct: hexahistidine (His6)
# Sequence (Q96RI1 whole entry): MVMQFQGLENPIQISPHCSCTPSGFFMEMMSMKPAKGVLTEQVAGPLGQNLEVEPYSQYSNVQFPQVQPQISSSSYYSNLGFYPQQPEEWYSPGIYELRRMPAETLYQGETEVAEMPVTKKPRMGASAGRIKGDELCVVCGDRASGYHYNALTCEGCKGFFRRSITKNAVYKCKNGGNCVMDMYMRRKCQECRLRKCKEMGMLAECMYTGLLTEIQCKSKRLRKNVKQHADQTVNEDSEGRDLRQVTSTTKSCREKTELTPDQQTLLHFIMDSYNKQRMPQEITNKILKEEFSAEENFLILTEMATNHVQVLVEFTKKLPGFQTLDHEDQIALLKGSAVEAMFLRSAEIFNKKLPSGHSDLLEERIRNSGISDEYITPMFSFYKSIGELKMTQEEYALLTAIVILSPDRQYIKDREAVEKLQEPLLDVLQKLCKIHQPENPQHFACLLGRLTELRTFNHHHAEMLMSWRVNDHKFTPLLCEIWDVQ
# method: AlphaScreen assay of FXR agonist activity in vitro: effect on binding between human farnesol receptor protein and its coactivator (SRC1-2)
# Type: biochemical
# run-conditions: hFXR 100 nM, peptide bSRC1-2 50 nM, 2 hr incubation at room temperature
assay-endpoint: EC50

The following compounds have reported results that may help.
# compound, tested-target, recorded-result
rows = [
    ("O=C(O)c1ccc2nc(N3CCC4(CC(OCc5c(-c6c(Cl)cccc6Cl)noc5C5CC5)C4)C3)oc2c1 (stereo not drawn) [Example 14]", "human farnesol receptor protein hFXR (Homo sapiens, UniProt Q96RI1)", "< 100 nM"),
    ("O=C(O)c1ccc2nc(N3CCC4(CC(OCc5c(-c6ccccc6C(F)(F)F)noc5C5CC5)C4)C3)sc2c1 (stereo not drawn) [Example 41]", "human farnesol receptor protein hFXR (Homo sapiens, UniProt Q96RI1)", "100 to 1000 nM"),
    ("O=C(O)c1cc2cc(N3CCC4(CC(OCc5c(-c6c(Cl)cccc6Cl)noc5C5CC5)C4)C3)ccc2o1 (stereo not drawn) [Example 29]", "human farnesol receptor protein hFXR (Homo sapiens, UniProt Q96RI1)", "< 100 nM"),
    ("O=C(O)c1cnc(N2CCC3(CC(OCc4c(-c5c(Cl)cccc5Cl)noc4C4CC4)C3)C2)cn1 (stereo not drawn) [Example 35]", "human farnesol receptor protein hFXR (Homo sapiens, UniProt Q96RI1)", "< 100 nM"),
    ("O=C(O)c1cccc(C(=O)N2CC3(CC(OCc4c(-c5c(Cl)cccc5Cl)noc4C4CC4)C3)C2)c1 [Example 3]", "human farnesol receptor protein hFXR (Homo sapiens, UniProt Q96RI1)", "> 1000 nM"),
    ("O=C(O)c1ccc2nc(N3CCC4(CC(OCc5c(-c6c(Cl)cccc6Cl)noc5C5CC5)C4)C3)ccc2c1 (stereo not drawn) [Example 34]", "human farnesol receptor protein hFXR (Homo sapiens, UniProt Q96RI1)", "100 to 1000 nM"),
    ("O=C(O)c1ccc2nc(N3CCC4(CC(OCc5c(-c6c(F)cccc6F)noc5C5CC5)C4)C3)sc2c1 (stereo not drawn) [Example 38]", "human farnesol receptor protein hFXR (Homo sapiens, UniProt Q96RI1)", "100 to 1000 nM"),
    ("Cn1c(C(=O)O)cc2cc(N3CCC4(CC(OCc5c(-c6c(Cl)cccc6Cl)noc5C5CC5)C4)C3)ccc21 (stereo not drawn) [Example 32]", "human farnesol receptor protein hFXR (Homo sapiens, UniProt Q96RI1)", "100 to 1000 nM"),
    ("O=C(O)c1cccc(C(=O)N2CCC3(CC2)CC(OCc2c(-c4c(Cl)cccc4Cl)noc2C2CC2)C3)c1 [Example 1]", "human farnesol receptor protein hFXR (Homo sapiens, UniProt Q96RI1)", "> 1000 nM"),
    ("O=C(O)c1cccc(C(=O)N2CCC3(CC(OCc4c(-c5c(Cl)cccc5Cl)noc4C4CC4)C3)C2)c1 (stereo not drawn) [Example 7]", "human farnesol receptor protein hFXR (Homo sapiens, UniProt Q96RI1)", "< 100 nM"),
]

Name the reported EC50 value associated with the compound O=C(O)c1ccc2nc(N3CCc4cc(OCc5c(-c6ccccc6C(F)(F)F)noc5C5CC5)ccc4C3)sc2c1 [Example 43] < 100 nM

What measured EC50 goes with O=C(O)c1ccc2nc(N3CCC4(CC(OCc5c(-c6c(F)cccc6F)noc5C5CC5)C4)C3)oc2c1 (stereo not drawn) [Example 39] ? 100 to 1000 nM
